Known composite z-score of a selection of molecules
# METHOD NOTES: small-molecule microarray binders of probe aEGFR, primary screen, biochemical, biotinylated probe, 635/667 nm fluorescence (AID 1097);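 note: probe is a biotinylated anti-EGFR antibody binding compounds printed on slides; score combines fluorescence near 667 nm and signal to noise of each spot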
# EXPERIMENTAL PARAMETERS: higher = more signal
MEASURED PARAMETER: composite z-score

- MOLECULE: "CO[C@@H]1COC(=O)CC=C[C@@H](C)[C@H](OC)COC(=O)CC=C[C@H]1C"
  MEASURED PARAMETER: "composite z-score"
  RESULT: -0.158
- MOLECULE: "COCCOC(=O)N1C(=O)[C@@]2(c3cc(C#CCC(C(=O)OC)C(=O)OC)ccc31)[C@H](c1ccccc1OCCO)N1[C@H](c3ccccc3)[C@H](c3ccccc3)OC(=O)[C@H]1[C@@H]2C(=O)N1CCCCCCC1"
  MEASURED PARAMETER: "composite z-score"
  RESULT: 0.83
- MOLECULE: "CO[C@@H]1COC(=O)[C@@H]2CCCN2C(=O)CC=C[C@@H](C)[C@H](OC)COC(=O)[C@@H]2CCCN2C(=O)CC=C[C@H]1C"
  MEASURED PARAMETER: "composite z-score"
  RESULT: -0.0332
- MOLECULE: "CCN1C(C)=C(C(=O)OC)[C@@H](c2ccccc2)N2C(=O)[C@](O)(C(=O)OC)[C@@H](c3ccccc3)C(C(=O)c3ccccc3)=C12"
  MEASURED PARAMETER: "composite z-score"
  RESULT: 0.0255
- MOLECULE: "CCCNC(=O)[C@@H]1c2ccccc2C(=O)N(Cc2cc(F)cc(C(F)(F)F)c2)[C@H]1c1ccc(CO)cc1"
  MEASURED PARAMETER: "composite z-score"
  RESULT: 0.289
- MOLECULE: "C[N+](C)(C)CCCCNC(=O)[C@H]1C[C@H]2C(=O)NCC(=O)N2[C@H]1c1cccc(OCCO)c1"
  MEASURED PARAMETER: "composite z-score"
  RESULT: 0.0717
- MOLECULE: "COc1ccc([Si](C)(C)[C@H]2[C@H](CC(=O)N(CCO)Cc3ccccc3)O[C@@]3(C(=O)N(C)c4ccccc43)[C@@H]2C)cc1"
  MEASURED PARAMETER: "composite z-score"
  RESULT: -0.0987
- MOLECULE: "COC(=O)c1c(CC[C@@H](CO)NC(=O)N[C@H](Cn2cc(-c3cncn3C)nn2)C(C)C)oc(C(C)=O)c1C(=O)OC"
  MEASURED PARAMETER: "composite z-score"
  RESULT: 0.19
- MOLECULE: "COCCOC(=O)N1C(=O)[C@@]2(c3cc(C#CCCO)ccc31)[C@H](C(=O)N1CCCCCCC1)[C@H]1C(=O)O[C@H](c3ccccc3)[C@H](c3ccccc3)N1[C@@H]2c1ccc(O)cc1"
  MEASURED PARAMETER: "composite z-score"
  RESULT: 0.0645
- MOLECULE: "Cc1ccc(N2C(=O)c3ccccc3[C@@H](C(=O)NCc3ccccc3)[C@@H]2c2ccc(CO)cc2)nc1"
  MEASURED PARAMETER: "composite z-score"
  RESULT: -0.166
- MOLECULE: "Cc1ccc(N2C(=O)c3ccccc3[C@](C)(C(=O)O)[C@@H]2c2ccc(CO)cc2)nc1"
  MEASURED PARAMETER: "composite z-score"
  RESULT: -0.427
- MOLECULE: "COc1cc([C@@H]2N[C@H](C(=O)O)Cc3c2[nH]c2ccccc32)cc(OC)c1OC"
  MEASURED PARAMETER: "composite z-score"
  RESULT: -0.0069
- MOLECULE: "Cc1ccc(S[C@]2(C(=O)NCCN3CCOCC3)CC(=O)N(C3Cc4ccccc4C3)[C@@H]2c2ccc(CO)cc2I)cc1"
  MEASURED PARAMETER: "composite z-score"
  RESULT: -0.204
- MOLECULE: "COc1cccc([C@H]2N[C@H](C(=O)O)CC[C@@H]2C)c1"
  MEASURED PARAMETER: "composite z-score"
  RESULT: -0.139
- MOLECULE: "COC(=O)[C@@]1(Cc2ccc(OC)cc2)[C@H]2c3cc(C(=O)N(C)C)n(Cc4ccc(C)c(F)c4F)c3C[C@H]2CN1C(=O)c1ccccc1"
  MEASURED PARAMETER: "composite z-score"
  RESULT: -0.0972
- MOLECULE: "CO[C@H]1COC(=O)CC=C[C@H](C)[C@@H](OC)COC(=O)CC=C[C@@H]1C"
  MEASURED PARAMETER: "composite z-score"
  RESULT: -0.0273
- MOLECULE: "CC(C)CN1C(=O)[C@@]2(Cc3ccccc31)c1ccccc1C(=O)N(C1CCCCC1)[C@H]2c1ccc(CO)cc1"
  MEASURED PARAMETER: "composite z-score"
  RESULT: -0.179
- MOLECULE: "C=C(CCCC)/C(=C/C[C@@H](OC(=O)c1ccncc1)c1cccc(OCCO)c1)c1cc(C(=O)OC)ccc1OC"
  MEASURED PARAMETER: "composite z-score"
  RESULT: 0.0376
- MOLECULE: "O=C1OCCC=C[C@H]2OC34C=CCN(Cc5ccccc5)C(=O)[C@H]3N(CCO)C(=O)[C@@H]4C12 (some centres undefined)"
  MEASURED PARAMETER: "composite z-score"
  RESULT: -0.304
- MOLECULE: "O=C(CS)NCCCCCCNC(=O)[C@@H]1C[C@@H]2C(=O)N[C@@H](Cc3ccccc3)C(=O)N2[C@@H]1c1ccc(O)cc1"
  MEASURED PARAMETER: "composite z-score"
  RESULT: -0.0271
- MOLECULE: "O=C(CS)NCCCCCNC(=O)[C@H]1C[C@H]2C(=O)N3CCC[C@H]3C(=O)N2[C@H]1c1ccc(O)cc1"
  MEASURED PARAMETER: "composite z-score"
  RESULT: -0.184
- MOLECULE: "COCCOC(=O)N1C(=O)[C@@]2(c3cc(C#CCNC(N)=O)ccc31)[C@H](c1ccccc1OCCO)N1[C@H](c3ccccc3)[C@H](c3ccccc3)OC(=O)[C@H]1[C@@H]2C(=O)NC[C@H](O)c1ccccc1"
  MEASURED PARAMETER: "composite z-score"
  RESULT: -0.065
- MOLECULE: "CC(c1ccccc1)C(O)C1C=CC2C(=O)N(C)C(=O)C2N1N(c1ccccc1)c1ccccc1 (centres undefined)"
  MEASURED PARAMETER: "composite z-score"
  RESULT: -0.0322
- MOLECULE: "CC(C)CNC(=O)[C@@]1(C)c2ccccc2C(=O)N(Cc2ccc(OC(F)(F)F)cc2)[C@H]1c1ccc(CO)cc1"
  MEASURED PARAMETER: "composite z-score"
  RESULT: -0.112
- MOLECULE: "CN1C(=O)C2C=CC(C(O)C3CC=CCC3)N(Nc3ccccc3)C2C1=O (centres undefined)"
  MEASURED PARAMETER: "composite z-score"
  RESULT: 0.112
- MOLECULE: "[N-]=[N+]=Nc1ccccc1C[C@@]1(C(=O)N2CCOCC2)N=C(c2ccc(OCCCO)cc2)O[C@@H]1c1ccccc1N=[N+]=[N-]"
  MEASURED PARAMETER: "composite z-score"
  RESULT: 0.0477
- MOLECULE: "CCCC[C@@H]1C[C@H]1[C@@H](NC(=O)c1ccccc1)c1ccccc1C(F)(F)F"
  MEASURED PARAMETER: "composite z-score"
  RESULT: -0.123
- MOLECULE: "CCOC(=O)C[C@H]1[C@H](OC(=O)c2cc3ccccc3oc2=O)[C@@H](NC(=O)c2ccc3ccccc3c2)c2cc(OCCCO)ccc2N1C(=O)c1ccc2ccccc2n1"
  MEASURED PARAMETER: "composite z-score"
  RESULT: 0.0768
- MOLECULE: "CO[C@@H]1COC(=O)[C@H](C)NC(=O)CC=C[C@@H](C)[C@H](NS(=O)(=O)c2ccc(C)cc2)COC(=O)CC=C[C@@H]1C"
  MEASURED PARAMETER: "composite z-score"
  RESULT: -0.211

---

Known z-score of a selection of molecules
# METHOD NOTES: CREB reporter modulators under forskolin, primary screen, cell-based, PC12, CRE-LacZ reporter, forskolin-stimulated (AID 1146);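 note: PC12 cells with 6xCRE LacZ reporter stimulated by forskolin 10 µM; beta-galactosidase reporter signal reflecting CREB driven transcription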
# EXPERIMENTAL PARAMETERS: luminescence, 4.5 h, higher = more signal, called active from +8 up or from −8 down

- MOLECULE: "O=C1O[C@@H](c2ccccc2)[C@@H](c2ccccc2)N2[C@@H](c3ccccc3OCCO)[C@]3(C(=O)Nc4ccc(C#CC5=CCCCC5)cc43)[C@@H](C(=O)O)[C@H]12"
  z-score: 13.7
- MOLECULE: "CO[C@H]1COC(=O)CC=C[C@H](C)[C@@H](OC)COC(=O)CC=C[C@@H]1C"
  z-score: -0.0885
- MOLECULE: "C=C(COC)C(=O)CC[C@H](OC(=O)c1ccccc1-c1ccccc1C(=O)O)c1cccc(OCCO)c1"
  z-score: 0.683
- MOLECULE: "CO[C@H]1COC(=O)[C@@H](OCc2ccccc2)C=C[C@H](C)[C@@H](OC)COC(=O)[C@H](OCc2ccccc2)C=C[C@@H]1C"
  z-score: -0.672
- MOLECULE: "CO[C@@H]1COC(=O)[C@H](COCc2ccccc2)NC(=O)CC=C[C@@H](C)[C@H](OC)COC(=O)[C@H](COCc2ccccc2)NC(=O)CC=C[C@H]1C"
  z-score: -0.401
- MOLECULE: "C=CC(=O)O[C@@H](Cc1ccccc1)[C@H]1C2C=CCCC=C2CN1Cc1cccc(Cl)c1 (stereo partly drawn)"
  z-score: -0.678
- MOLECULE: "C=CCNC(=O)[C@H]1[C@@H]2C(=O)O[C@@H](c3ccccc3)[C@@H](c3ccccc3)N2[C@@H](c2ccc(O)cc2)[C@]12C(=O)Nc1ccc(C#CCNC(N)=O)cc12"
  z-score: -0.759
- MOLECULE: "O=C1O[C@@H](c2ccccc2)[C@@H](c2ccccc2)N2[C@@H](c3ccc(OCCO)cc3)[C@]3(C(=O)Nc4ccc(C#CCCO)cc43)[C@@H](C(=O)N3CCN(c4ncccn4)CC3)[C@H]12"
  z-score: 0.0989
- MOLECULE: "CC(C)(C)OC(=O)CC[C@@]1(C(=O)NCc2ccccc2)N=C(c2ccc(OCCCO)cc2)O[C@@H]1c1ccccc1"
  z-score: -2.42
- MOLECULE: "COCCOC(=O)N1C(=O)[C@@]2(c3cc(C#CCNC(N)=O)ccc31)[C@H](C(=O)N1CCCCCCC1)[C@H]1C(=O)O[C@H](c3ccccc3)[C@H](c3ccccc3)N1[C@@H]2c1ccccc1OCCO"
  z-score: -1.01
- MOLECULE: "C=CCNC(=O)[C@H]1[C@@H]2C(=O)O[C@@H](c3ccccc3)[C@@H](c3ccccc3)N2[C@@H](c2ccccc2OCCO)[C@]12C(=O)N(C(=O)OCCOC)c1ccc(C#CCC(C(=O)OC)C(=O)OC)cc12"
  z-score: 0.105
- MOLECULE: "CO[C@H]1COC(=O)CC=C[C@H](C)COC(=O)[C@@H](OCc2ccccc2)C=C[C@@H]1C"
  z-score: -1.2
- MOLECULE: "CO[C@H]1COC(=O)CC=C[C@@H](C)COC(=O)[C@@H](C)NC(=O)CC=C[C@@H]1C"
  z-score: -1.09
